Each recorded value in this set is attributed to PubChem BioAssay (NCI).

System: IGROV1 ovarian
Test: NCI tumour cell line growth inhibition, 48 h
Where a SMILES comes first, the peptide text is derived from it. [ ]: non-standard residue; d: D form. The star is where a group is joined. ξ: configuration not given here. NMeF = CN[C@@H](Cc1ccccc1)C(=O)O; NMeV = CN[C@H](C(=O)O)C(C)C; ξNMeN = CNC(CC(N)=O)C(=O)O; NMeA = CN[C@@H](C)C(=O)O; ξNMeV = CNC(C(=O)O)C(C)C; Boc = CC(C)(C)OC(=O)*
We begin with a simple list: items and their reported GI50.

Examples from the recorded data:
molecule=COc1cc(-c2nn(-c3cccc(NC(=O)Nc4cccc(C(F)(F)F)c4)c3)cc2-c2ccncc2)ccc1Cl readout_kind=GI50 value_observed="920 nM"
molecule=COc1cccc2c1O/C(=C\c1ncc([N+](=O)[O-])n1C)C2=O readout_kind=GI50 value_observed="303 nM"
molecule="Nc1c(C(=O)Nc2cccc(C(F)(F)F)c2)sc2nc3c(cc12)C(O)CCC3 (stereo not drawn)" readout_kind=GI50 value_observed="14100 nM"
molecule="COC(=O)[C@H](C)N(C)C(=O)C(CC(N)=O)N(C)C(=O)[C@H](Cc1ccccc1)N(C)C(=O)[C@@H]1CCCN1C(=O)[C@H](C(C)C)N(C)C(=O)C(C(C)C)N(C)C(=O)[C@@H](NC(=O)OC(C)(C)C)C(C)C (stereo partly drawn) (Boc-V[ξNMeV][NMeV]P[NMeF][ξNMeN][NMeA]-OMe)" readout_kind=GI50 value_observed="36700 nM"
molecule="CCc1ccc(C(=O)/C=C/C23c4ccccc4C(c4ccccc42)C2C(=O)NC(=O)C23)cc1 (stereo not drawn)" readout_kind=GI50 value_observed="1760 nM"

Input line: Looking for the measured GI50 of COc1cc(C2CC(c3cccc(Nc4ccncc4)c3)=NN2c2ccccc2)cc(OC)c1OC (stereo not drawn) , can you help?
Output line: 1770 nM

Input line: Request: C=C1C(O)C2C(=C(CCC3CC3)C13CC3)C(=O)C(C)(C)C2O (stereo not drawn)
Output line: > 100000 nM

Input line: Try O=c1ccccc(-c2ccc(Br)cc2)c1O next.
Output line: 432 nM
